Quick list: IC50 per entry.
target: BACE1 (Homo sapiens); assay: In Vitro Enzymatic BACE FRET (Fluorescence Resonance Energy Transfer) Assay; assay type: biochemical; conditions: read-out: BACE1 FRET assay
Sequence (P56817 46-501, species assumed): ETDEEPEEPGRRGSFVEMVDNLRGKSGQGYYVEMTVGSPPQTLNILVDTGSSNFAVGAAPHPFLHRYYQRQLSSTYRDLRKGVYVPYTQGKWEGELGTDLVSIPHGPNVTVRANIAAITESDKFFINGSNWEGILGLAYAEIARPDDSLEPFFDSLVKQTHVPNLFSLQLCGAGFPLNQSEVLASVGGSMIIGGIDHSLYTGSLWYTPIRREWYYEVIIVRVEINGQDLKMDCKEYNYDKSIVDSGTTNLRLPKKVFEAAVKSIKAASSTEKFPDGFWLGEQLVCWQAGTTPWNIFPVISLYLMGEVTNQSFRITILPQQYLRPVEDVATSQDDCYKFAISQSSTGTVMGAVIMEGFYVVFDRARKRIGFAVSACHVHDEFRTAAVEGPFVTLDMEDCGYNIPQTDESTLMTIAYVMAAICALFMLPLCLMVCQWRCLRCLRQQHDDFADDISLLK

CC1(C)CC1c1cc2c(cn1)Oc1ccc(-c3cccnc3)cc1[C@]21COC(N)=N1 (stereo partly shown)    < 100 nM
NC1=N[C@]2(CO1)c1cc(-c3cccnc3)ccc1Oc1cnc(C3CC3)cc12    < 100 nM
NC1=N[C@@]2(CO1)c1cc(C(=O)NC3CC3)ccc1Oc1ccc(-c3ccccc3)cc12    < 100 nM
NC1=N[C@@]2(CO1)c1cc(-c3cccnc3)ccc1Oc1cc(F)c(C3=CCOCC3)cc12    < 100 nM
CC(C)(C)CCOc1nccc2c1[C@@]1(COC(N)=N1)c1cc(-c3cncnc3)ccc1O2    100 to 1000 nM

What does the record list as IC50 for `COC(C)(C)CCc1ccc2c(c1)[C@]1(COC(N)=N1)c1cc(-c3cccnc3)ccc1O2` ?
< 100 nM

What does the record list as IC50 for `COc1ccc(-c2ccc3c(c2)[C@]2(COC(N)=N2)c2cc(-c4cccnc4)ccc2O3)o1` ?
< 100 nM

What does the record list as IC50 for `CC1(COc2ccc3c(c2)[C@@]2(COC(N)=N2)c2cc(-c4cccc(Cl)c4)cnc2O3)COC1` ?
< 100 nM

What does the record list as IC50 for `CC1(C)CN(c2cnc3c(c2)[C@]2(COC(N)=N2)c2cc(-c4cc(F)ccc4F)ccc2O3)CCO1` ?
< 100 nM

What does the record list as IC50 for `NC1=N[C@@]2(CO1)c1cc(-c3cccnc3)ccc1Oc1cnc(C3=CCCCO3)cc12` ?
< 100 nM
